// values below are reported pIC50
biological target: Human RAR-related Orphan Receptor Gamma (RORγ) (Homo sapiens, UniProt P51449); test: RORγ assay (GAL4-RORγ hybrid luciferase reporter, Indigo Biosciences); conditions: inverse-agonist activity, GAL4-RORγ reporter cells, 23 hours
Sequence (P51449 269-508 limits assumed): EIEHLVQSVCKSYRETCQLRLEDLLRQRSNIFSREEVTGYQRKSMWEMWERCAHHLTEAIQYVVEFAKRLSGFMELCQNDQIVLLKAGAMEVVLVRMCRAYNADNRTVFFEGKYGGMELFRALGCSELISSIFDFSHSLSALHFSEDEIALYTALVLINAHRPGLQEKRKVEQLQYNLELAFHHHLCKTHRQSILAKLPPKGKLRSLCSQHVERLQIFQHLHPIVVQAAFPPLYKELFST
FYI, pIC50 means -log10 of a concentration in mol per litre.

Lookup: For the compound C[C@H]1C(=O)C(C#N)=C[C@@]2(C)c3c(c(-c4ccncn4)nn3-c3ccc(-c4cccnc4)cc3F)CC[C@H]12 , give its measured pIC50 value.
Found: 7.24

Lookup: For the compound C[C@H]1C(=O)C(C#N)=C[C@@]2(C)c3c(c(-c4ccccc4)nn3-c3ccc(Cl)c(Cl)c3)CC[C@H]12 , give its measured pIC50 value.
Found: 7.06

Lookup: For the compound C[C@H]1C(=O)C(C#N)=C[C@@]2(C)c3nc(C4CCCCC4)n(-c4ccccc4)c3CC[C@H]12 , give its measured pIC50 value.
Found: 6.76

Lookup: For the compound C[C@H]1C(=O)C(C#N)=C[C@@]2(C)c3c(c(-c4ccccc4F)nn3-c3ccc(-c4ccncn4)cc3)CC[C@H]12 , give its measured pIC50 value.
Found: 7.38

Lookup: For the compound C[C@H]1C(=O)C(C#N)=C[C@@]2(C)c3c(c(-c4ccncn4)nn3-c3ccc(-c4cccc(CF)c4)cn3)CC[C@H]12 , give its measured pIC50 value.
Found: 6.87

Lookup: For the compound C[C@H]1C(=O)C(C#N)=C[C@@]2(C)c3c(c(-c4cccnc4)nn3-c3ccc(-c4cncc(F)c4)cc3)CC[C@H]12 , give its measured pIC50 value.
Found: 7.33

Here's the next entry for you.
Lookup: For the compound C[C@H]1C(=O)C(C#N)=C[C@@]2(C)c3c(c(-c4ccccc4F)nn3-c3ccc(-c4cncnc4)cc3)CC[C@H]12 , give its measured pIC50 value.
Found: 7.36
